- Test system: HUVEC (normal human umbilical vein endothelial cells)
- assay.info: MTS cytotoxicity assay, HUVEC normal cells
- Assay type: cell-based
- settings: 48 h of incubation
- From the text: For the evaluation of the cytotoxic effects of the complexes and ligand two human cancer cell lines were used, namely MDA-MB 231 (human breast adenocarcinoma) and LoVo (human colon adenocarcinoma); a normal cell line, human umbilical vein endothelial cells (HUVEC), was used as a reference. […] The reduced MTS to formazan was spectrophotometrically measured at λ = 492 nm. […] Cell viability data were obtained in triplicate (n = 3) and expressed as mean values ± standard deviations (SD). […]
measure.name: IC50

{"molecule": "CCn1cc(C(=O)[O][La]([OH])[O]C(=O)c2cn(CC)c3cc4c(cc3c2=O)OCO4)c(=O)c2cc3c(cc21)OCO3.O [La oxo, [La(oxo)(OH)(H2O)]]", "IC50": "> 200 µM"}
{"molecule": "CCn1cc(C(=O)[O][Eu]([OH])[O]C(=O)c2cn(CC)c3cc4c(cc3c2=O)OCO4)c(=O)c2cc3c(cc21)OCO3.O [Eu oxo, [Eu(oxo)(OH)(H2O)]]", "IC50": "> 200 µM"}
{"molecule": "N.N.[Cl][Pt][Cl] [Cis-Pt, Cisplatin, reference compound]", "IC50": "28.5 µM"}
{"molecule": "CCn1cc(C(=O)[O][Y]([OH])[O]C(=O)c2cn(CC)c3cc4c(cc3c2=O)OCO4)c(=O)c2cc3c(cc21)OCO3.O [Y oxo, [Y(oxo)(OH)(H2O)]]", "IC50": "> 200 µM"}

query: Recall and state the measured IC50 for CCn1cc(C(=O)[O][Sm]([OH])[O]C(=O)c2cn(CC)c3cc4c(cc3c2=O)OCO4)c(=O)c2cc3c(cc21)OCO3.O.O [Sm oxo, [Sm(oxo)(OH)(H2O)] · H2O] .
result: > 200 µM

This collection of values is drawn from paper PMC7699381.
